System: eIF2α phosphorylation (eIF2•GTP•Met-tRNAi ternary complex; HRI activation)
Experiment: surrogate dual luciferase eIF2α phosphorylation (ternary complex) assay
Format: cell-based, human
Conditions: ternary complex assay; F/R normalized to vehicle (DMSO = 1)
From the text: The dual luciferase expression vector and other plasmids used for these studies were previously described (see, for example, Ziegeler, G. et al. Journal of Biological Chemistry 2010, 285(20), 15408-19). The ternary complex assay, surrogate of eIF2α phosphorylation, has been described elsewhere (see, for example, Chen, T. et al. Nature Chemical Biology 2011, 7(9), 610-6). […]
Mark 0.0 for Emax (F/R) values under 4 F/R, and 1.0 for everything at or above.

O=C(Nc1cccc([N+](=O)[O-])c1)NC1CCC(Oc2ccc(F)cc2)CC1 (stereo not drawn); 1.0

Entry COc1ccc(NC(=O)NC2CCC(Oc3ccc(F)cc3)CC2)cc1 (stereo not drawn) : is its Emax (F/R) no less than 4 F/R?
0.0

Likewise for CSc1cccc(NC(=O)NC2CCC(Oc3ccc(F)cc3)CC2)c1 (stereo not drawn) [Compound I-10m] ?
1.0

Then what about the compound COc1cccc(NC(=O)NC2CCC(Oc3ccc(F)cc3)CC2)c1 (stereo not drawn) ?
0.0

Repeat for the following compound: O=C(Nc1ccccc1Cl)NC1CCC(Oc2ccc(F)cc2)CC1 (stereo not drawn)
1.0

Now consider O=C(Nc1ccc(C(F)(F)F)cc1)NC1CCC(Oc2ccc(F)cc2)CC1 (stereo not drawn) .
1.0

Next compound: CSc1ccc(NC(=O)NC2CCC(Oc3ccc(F)cc3)CC2)cc1 (stereo not drawn) [Compound I-10p]
0.0

Would you mind doing O=C(Nc1ccccc1[N+](=O)[O-])NC1CCC(Oc2ccc(F)cc2)CC1 (stereo not drawn) as well?
0.0
